- targetOrTestSystem: CDK4/cyclin D3 (Homo sapiens, UniProt P11802)
- Sequence (P11802 2-303 limits assumed): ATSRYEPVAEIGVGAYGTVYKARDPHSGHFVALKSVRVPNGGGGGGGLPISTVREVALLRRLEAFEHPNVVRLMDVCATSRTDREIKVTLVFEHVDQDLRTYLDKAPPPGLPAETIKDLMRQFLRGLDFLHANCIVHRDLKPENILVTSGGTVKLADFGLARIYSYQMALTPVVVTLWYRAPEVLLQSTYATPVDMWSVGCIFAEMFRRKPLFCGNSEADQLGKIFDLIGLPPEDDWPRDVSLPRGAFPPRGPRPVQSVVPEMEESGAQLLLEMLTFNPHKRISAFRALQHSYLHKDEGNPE
- Sequence (P30281 1-264 limits assumed, further chain): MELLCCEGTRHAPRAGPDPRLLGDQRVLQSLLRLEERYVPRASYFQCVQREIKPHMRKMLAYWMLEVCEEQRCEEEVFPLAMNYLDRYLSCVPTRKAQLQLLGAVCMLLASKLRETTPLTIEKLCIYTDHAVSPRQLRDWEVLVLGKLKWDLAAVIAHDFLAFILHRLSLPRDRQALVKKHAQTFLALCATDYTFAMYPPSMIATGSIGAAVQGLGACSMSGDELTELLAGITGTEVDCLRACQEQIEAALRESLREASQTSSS
- assayProtocol: Inhibition of CDK4/Cyclin D Retinoblastoma Kinase Activity
- testConditions: apparent Ki
pKi: −log10 of the molar value.
assayMetric: pKi

Check out these entries, answers already filled in.
> print(dat)
                                   compound  assaymetric  resultvalue
1  Cc1ccncc1-c1ccc2[nH]nc(/C=C/c3ccccc3)c2c1          pKi         7.82
2  CN(C)Cc1cccc2[nH]c(-c3n[nH]c4ccc(-c5cncc6ccccc56)cc34)nc12          pKi         9.43
3  Cc1c(-c2ccncc2)cncc1-c1ccc2[nH]nc(-c3nc4ccccc4[nH]3)c2c1          pKi         8.59
4  OC1CCN(c2ccc3[nH]nc(/C=C/c4ccccc4)c3c2)CC1          pKi         5.82
5  Cc1c(CNCc2ccccc2)cncc1-c1ccc2[nH]nc(-c3nc4ccccc4[nH]3)c2c1          pKi         8.46
6  Cc1c(-c2ccc3[nH]nc(-c4nc5ccccc5[nH]4)c3c2)ccc(CCCO)c1O          pKi         7.08

[A] OC1CCCN(c2ccc3[nH]nc(/C=C/c4ccccc4)c3c2)C1 (centres unmarked)
[B] Cc1c(CNCC(C)C)cncc1-c1ccc2[nH]nc(-c3nc4ccccc4[nH]3)c2c1
-- ask Between A and B , whose measured pKi reads higher? Use the label to indicate which entry you chose.
-- reply B

###

- targetOrTestSystem: FGFR1 tyrosine kinase (Homo sapiens, UniProt P11362, C488A/C584S/L457V)
- Construct: the cytosolic domain of FGFR1 tyrosine kinase (amino acids 456–766)
- Sequence (P11362 456-766 L457V/C488A/C584S): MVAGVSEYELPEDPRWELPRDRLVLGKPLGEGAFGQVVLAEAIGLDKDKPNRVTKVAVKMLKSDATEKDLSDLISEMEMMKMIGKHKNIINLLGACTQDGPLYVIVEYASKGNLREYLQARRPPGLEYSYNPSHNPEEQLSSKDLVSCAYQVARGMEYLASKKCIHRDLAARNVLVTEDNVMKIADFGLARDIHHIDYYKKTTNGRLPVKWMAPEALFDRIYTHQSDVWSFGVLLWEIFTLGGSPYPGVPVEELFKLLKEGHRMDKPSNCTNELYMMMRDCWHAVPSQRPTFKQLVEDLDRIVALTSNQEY
- assayProtocol: Inhibition of phosphorylated FGF receptor tyrosine kinase activity
pKi: −log10 of the molar value.
assayMetric: pKi

> print(dat)
                          compoundstructure  resultvalue
1  OCc1cccc2[nH]c(-c3n[nH]c4ccc(-c5cncc6ccccc56)cc34)nc12         5.66
2  Cc1c(-c2cccnc2)cncc1-c1ccc2[nH]nc(-c3nc4ccccc4[nH]3)c2c1         5.52
3  c1ccc2c(-c3ccc4[nH]nc(-c5nc6ccccc6[nH]5)c4c3)cncc2c1         6.36
4  Cc1c(O)cccc1-c1ccc2[nH]nc(-c3nc4c(CO)cccc4[nH]3)c2c1         6.10

[I] CCc1c(-c2ccncc2)cncc1-c1ccc2[nH]nc(-c3nc4ccccc4[nH]3)c2c1
[II] C(=C\c1n[nH]c2ccc(-c3cncc4ccccc34)cc12)/c1ccccc1
-- ask Two entries are listed, I and II . Which one carries the higher pKi? Select an item and report its label.
-- reply I
(I: 6.32, II: 6.00)

###

- targetOrTestSystem: VEGF-R2 (Homo sapiens, UniProt P35968, DEL940-989/E990V)
- Construct: VEGF-R2Δ50 contains residues 806–939 and 990–1171; made in house; host or cells: baculovirus/insect cells
- Sequence (P35968 with tags, fused parts or gaps DEL940-989/E990V limits assumed): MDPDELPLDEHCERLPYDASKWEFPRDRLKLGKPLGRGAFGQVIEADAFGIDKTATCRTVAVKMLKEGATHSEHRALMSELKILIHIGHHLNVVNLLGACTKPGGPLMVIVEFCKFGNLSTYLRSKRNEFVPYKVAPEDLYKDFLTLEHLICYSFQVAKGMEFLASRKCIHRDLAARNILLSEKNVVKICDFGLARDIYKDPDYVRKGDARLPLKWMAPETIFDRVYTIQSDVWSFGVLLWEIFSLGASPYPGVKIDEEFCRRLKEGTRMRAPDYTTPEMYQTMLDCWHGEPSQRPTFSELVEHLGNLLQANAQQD
- assayProtocol: VEGF-R2 Assay (coupled spectrophotometric FLVK-P / ELISA)
- Format: biochemical
- testConditions: read-out: VEGF % Inhib. at 1 μM
assayMetric: inhibition at 1 µM (%)

Answered cases to consult:
> print(dat)
                          compoundstructure         assaymetric  resultvalue
1  C(=C\c1n[nH]c2ccc(-c3cncc4ccccc34)cc12)/c1ccccc1  inhibition at 1 µM           36
2  Cc1c(-c2ccncc2)cncc1-c1ccc2[nH]nc(-c3nc4ccccc4[nH]3)c2c1  inhibition at 1 µM           32
3  CCN(CC)Cc1cccc2[nH]c(-c3n[nH]c4ccc(-c5cncc6ccccc56)cc34)nc12  inhibition at 1 µM           15

[1] CCc1c(-c2ccncc2)cncc1-c1ccc2[nH]nc(-c3nc4ccccc4[nH]3)c2c1
[2] Clc1ccncc1-c1ccc2[nH]nc(-c3nc4ccccc4[nH]3)c2c1
[3] Fc1ccccc1-c1ccc2[nH]nc(-c3nc4ccccc4[nH]3)c2c1
[4] Cc1c(CCCO)cncc1-c1ccc2[nH]nc(-c3nc4ccccc4[nH]3)c2c1
-- ask Please rank these compounds by inhibition at 1 µM in descending order. The reply should contain the labels ordered as requested.
-- reply 3, 2, 4, 1

###

- targetOrTestSystem: CDK4/cyclin D3 (Homo sapiens)
- assayProtocol: Inhibition of CDK4/Cyclin D Retinoblastoma Kinase Activity
- testConditions: apparent Ki
assayMetric: Ki (µM)

> print(dat)
                                   compound  assaymetric  resultvalue
1  Fc1ccccc1-c1ccc2[nH]nc(-c3nc4ccccc4[nH]3)c2c1 [Example 6]           Ki          0.2
2  Cc1c(CNCCO)cncc1-c1ccc2[nH]nc(-c3nc4ccccc4[nH]3)c2c1 [Example 89]           Ki        0.001
3  Cc1c(-c2ccc3[nH]nc(-c4nc5ccccc5[nH]4)c3c2)cncc1-c1ccccn1 [Example 62]           Ki         0.05
4  Cc1c(-c2cccnc2)cncc1-c1ccc2[nH]nc(-c3nc4ccccc4[nH]3)c2c1 [Example 58]           Ki       0.0067
5  Cc1c(CN2CCOCC2)cncc1-c1ccc2[nH]nc(-c3nc4ccccc4[nH]3)c2c1 [Example 91]           Ki       0.0075

[a] Nc1ccc2[nH]nc(-c3ccc[nH]3)c2c1 [Example 84, 5-Amino-3-(2-Pyrrolyl)-1H-indazole]
[b] Oc1cc(F)cc(F)c1-c1ccc2[nH]nc(-c3nc4ccccc4[nH]3)c2c1 [Example 51]
-- ask Which of the two items, a and b , has the greater recorded Ki? Bench note: the answer is the label of the chosen record.
-- reply a

###

- targetOrTestSystem: CDK2/cyclin A (Homo sapiens)
- Construct: cyclin A: E. coli
- assayProtocol: Inhibition of CDK2/Cyclin A Retinoblastoma Kinase Activity
- testConditions: apparent Ki
assayMetric: Ki (nM)

Consider the reported Ki for these compounds:
> print(dat)
                                   compound  assaymetric  resultvalue
1  c1ccc2[nH]c(-c3n[nH]c4ccc(-c5cccc6[nH]ccc56)cc34)nc2c1 [Example 48]           Ki           55
2  Cc1c(CNC(C)C)cncc1-c1ccc2[nH]nc(-c3nc4ccccc4[nH]3)c2c1 [Example 78]           Ki          0.7

[P] c1ccc(-c2n[nH]c3ccc(-c4ccncc4)cc23)cc1 [Example 14, 3-Phenyl-5-(Pyrid-4-yl)-1H-indazole]
[Q] Clc1ccncc1-c1ccc2[nH]nc(/C=C/c3ccccc3)c2c1 [Example 42]
-- ask Given the listed items, does P or Q have the lesser reported Ki? Answer with the label corresponding to your selection.
-- reply Q

###

- targetOrTestSystem: CDK4/cyclin D3 (Homo sapiens, UniProt P11802)
- assayProtocol: Inhibition of CDK4/Cyclin D Retinoblastoma Kinase Activity
- testConditions: apparent Ki
pKi: −log10 of the molar value.
assayMetric: pKi

Would you please look over these solved cases?
> print(dat)
                                   compound  assaymetric  resultvalue
1  COc1c(O)cccc1-c1ccc2[nH]nc(-c3nc4ccccc4[nH]3)c2c1 [Example 47]          pKi         7.03
2  CCNCc1cncc(-c2ccc3[nH]nc(-c4nc5c(NC(C)=O)cccc5[nH]4)c3c2)c1C [Example 82]          pKi         6.96

[I] C(=C\c1ccc2[nH]nc(/C=C/c3ccccc3)c2c1)/c1ccccc1 [Example 2, 3,5-Distyryl-1H-Indazole]
[II] Cc1c(O)cccc1-c1ccc2[nH]nc(-c3nc4ccccc4[nH]3)c2c1 [10′]
-- ask Task for the reader: decide whether I or II has the larger pKi. State the label of the item chosen.
-- reply II
(II: 7.13, I: 5.10)

###

- targetOrTestSystem: CDK4/cyclin D3 (Homo sapiens)
- assayProtocol: Inhibition of CDK4/Cyclin D Retinoblastoma Kinase Activity
- testConditions: apparent Ki
assayMetric: Ki (µM)

Before answering, review these 8 worked examples.
> print(dat)
                                   molecule  assaymetric  resultvalue
1  Cc1c(O)cccc1-c1ccc2[nH]nc(/C=C/c3ccccc3)c2c1 [15′]           Ki        0.018
2  O=C(Nc1cccc2c(-c3ccc4[nH]nc(-c5nc6ccccc6[nH]5)c4c3)cncc12)c1cccnc1 [Example 55]           Ki        0.041
3  c1ccc(-c2ccc3[nH]nc(-c4nc5ccccc5[nH]4)c3c2)cc1 [Example 3]           Ki         0.37
4  Cc1c(O)cccc1-c1ccc2[nH]nc(-c3nc4c(CO)cccc4[nH]3)c2c1 [Example 23]           Ki        0.065
5  c1ccc2[nH]c(-c3n[nH]c4ccc(-c5cccc6[nH]ccc56)cc34)nc2c1 [Example 48]           Ki        0.021
6  Nc1cccc2c(-c3ccc4[nH]nc(/C=C/c5ccccc5)c4c3)cncc12 [Example 45]           Ki        0.012
7  Cc1c(-c2ccncc2)cncc1-c1ccc2[nH]nc(-c3nc4ccc(NS(C)(=O)=O)cc4[nH]3)c2c1 [Example 71]           Ki      0.00085
8  C(=C\c1n[nH]c2ccc(-c3cncc4ccccc34)cc12)/c1ccccc1 [Example 16]           Ki        0.035

[A] Oc1ccc(F)c(-c2ccc3[nH]nc(-c4nc5ccccc5[nH]4)c3c2)c1F [Example 49]
[B] COc1ccc(-c2ccc3[nH]nc(-c4nc5ccccc5[nH]4)c3c2)cc1 [Example 7′]
-- ask Of the two listed items, A and B , which carries the larger Ki figure? Provide the label of your selected option as the answer.
-- reply B
